target: c-Met kinase (histidine-tagged c-Met catalytic domain fusion protein) (Homo sapiens, UniProt P08581); construct: histidine-tagged c-Met catalytic domain fusion protein (Invitrogen, #PV3143) was used for the assay; histidine tag; experiment: In vitro c-Met kinase enzyme assay; settings: poly Glu-Tyr phosphorylation, 5 μM ATP, 25 minutes at 30° C.; read-out: IC50 for the inhibition of c-Met kinase
Sequence (P08581 1078-1345 limits assumed): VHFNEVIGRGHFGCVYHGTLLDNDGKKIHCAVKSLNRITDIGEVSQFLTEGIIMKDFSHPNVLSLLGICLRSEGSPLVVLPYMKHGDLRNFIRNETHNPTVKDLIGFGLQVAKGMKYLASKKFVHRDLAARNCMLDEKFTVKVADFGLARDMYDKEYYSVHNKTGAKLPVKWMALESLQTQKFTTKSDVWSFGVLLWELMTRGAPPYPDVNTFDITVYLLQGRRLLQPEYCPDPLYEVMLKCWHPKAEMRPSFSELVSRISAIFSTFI
quantityName: IC50 (µM)

1) COc1ccc(C2(c3nnc4ncc(-c5ccccc5)nn34)CC2)cc1 0.0129
